From: patent US20250101063A1

System: zebrafish model of intestinal mucosal injury
Experiment: Efficacy in relieving colitis: intestinal lumen area in TNBS-treated zebrafish
Format: in vivo
Conditions: 1000 μg/mL; significance vs model control group of the same batch
Where no end group is shown, it is not given here. [ ]: non-standard residue; d: D form. pGlu = O=C1CC[C@@H](C(=O)O)N1
parameter_measured: Activity in relieving intestinal lumen dilatation

[[record]]
substance = "GPETAFLRKEPVPQAKPRKVAAQ [Compound 95]"
recorded_result = "** (** p < 0.01)"

[[record]]
substance = "EPVPQAKP [Compound 58]"
recorded_result = "+"

[[record]]
substance = "KEGVPQAKGRKVAAQ [Compound 36]"
recorded_result = "+"

[[record]]
substance = "Pro-Val-Pro-Ala (PVPA; printed: Pro-Val-Pro-Ala) [Compound 42]"
recorded_result = "+"

[[record]]
substance = "Val-Pro-Gln-Ala (VPQA; printed: Val-Pro-Gln-Ala) [Compound 13]"
recorded_result = "−"

[[record]]
substance = "pyro-Glu-Leu-Lys-Glu-Pro-Val-Pro-Gln-Ala-Lys-Pro-Arg-Lys-Val-Ala-Ala-Gln ([pGlu]LKEPVPQAKPRKVAAQ; also: acetate salt) [Compound 89]"
recorded_result = "** (** p < 0.01)"

[[record]]
substance = "KEPVPQAKPAKVAAQ [Compound 27]"
recorded_result = "+"

[[record]]
substance = "EPVPQAKPRK [Compound 38]"
recorded_result = "* (* p < 0.05)"

[[record]]
substance = "KEPAPQAKPRKVAAQ [Compound 25]"
recorded_result = "** (** p < 0.01)"

[[record]]
substance = "PRKVAAQ [Compound 5]"
recorded_result = "* (* p < 0.05)"


---

Test system: zebrafish model of intestinal mucosal injury
Experiment: Efficacy in relieving colitis: intestinal lumen area in TNBS-treated zebrafish
Format: in vivo
Conditions: 1000 μg/mL; significance vs model control group of the same batch
Where no end group is shown, it is not given here. [ ]: non-standard residue; d: D form.
parameter_measured: Activity in relieving intestinal lumen dilatation

[[record]]
substance = "EPVAQAK [Compound 54]"
recorded_result = "*** (*** p < 0.001)"

[[record]]
substance = "KEPVPQAK[dP]RKVAAQ [Compound 69]"
recorded_result = "+"

[[record]]
substance = "SSEDIKEEPVPQAK [Compound 98]"
recorded_result = "** (** p < 0.01)"

[[record]]
substance = "DPVPQAK [Compound 49]"
recorded_result = "* (* p < 0.05)"

[[record]]
substance = "KEPVGQAKGRKVAAQ [Compound 34]"
recorded_result = "* (* p < 0.05)"

[[record]]
substance = "Glu-Pro-Val-Pro-Gln (EPVPQ; printed: Glu-Pro-Val-Pro-Gln) [Compound 86]"
recorded_result = "* (* p < 0.05)"

[[record]]
substance = "KEPIPQAKPRKVAAQ [Compound 106]"
recorded_result = "** (** p < 0.01)"

[[record]]
substance = "RKDVYEPVPQAK [Compound 93]"
recorded_result = "* (* p < 0.05)"

[[record]]
substance = "KEPVPQAK [Compound 4]"
recorded_result = "* (* p < 0.05)"

[[record]]
substance = "Lys-Val-Ala-Ala (KVAA; printed: Lys-Val-Ala-Ala) [Compound 16]"
recorded_result = "+"

[[record]]
substance = "KEGVGQAKGRKVAAQ [Compound 35]"
recorded_result = "−"

[[record]]
substance = "KEPVPQAKARKVAAQ [Compound 26]"
recorded_result = "* (* p < 0.05)"

[[record]]
substance = "KE[dP]VPQAKPRKVAAQ [Compound 63]"
recorded_result = "*** (*** p < 0.001)"

[[record]]
substance = "Pro-Val-Pro-Glu-Ala (PVPEA; printed: Pro-Val-Pro-Glu-Ala) [Compound 40]"
recorded_result = "+"

[[record]]
substance = "KEPVAQAKPRKVAAQ [Compound 22]"
recorded_result = "+"

[[record]]
substance = "VPYKEPVPQAKPRKVAAQ [Compound 88]"
recorded_result = "* (* p < 0.05)"

[[record]]
substance = "Gln-Ala-Lys-Pro (QAKP; printed: Gln-Ala-Lys-Pro) [Compound 17]"
recorded_result = "+"

[[record]]
substance = "Pro-Val-Pro-Gln (PVPQ; printed: Pro-Val-Pro-Gln) [Compound 12]"
recorded_result = "** (** p < 0.01)"

[[record]]
substance = "KEPVPQAKP[dR]KVAAQ [Compound 70]"
recorded_result = "* (* p < 0.05)"

[[record]]
substance = "KEPVP[dQ]AKPRKVAAQ [Compound 66]"
recorded_result = "* (* p < 0.05)"

[[record]]
substance = "EGVPQAK [Compound 76]"
recorded_result = "+"

[[record]]
substance = "KEGVPQAKPRKVAAQ [Compound 31]"
recorded_result = "* (* p < 0.05)"

[[record]]
substance = "H-KEPVPQAKPRKVAAQ-OH [Compound 1]"
recorded_result = "*** (*** p < 0.001)"

[[record]]
substance = "KEPVPQ[dA]KPRKVAAQ [Compound 67]"
recorded_result = "* (* p < 0.05)"

[[record]]
substance = "SSEDIKEKEPVPQAKPRKVAAQ [Compound 97]"
recorded_result = "*** (*** p < 0.001)"

[[record]]
substance = "KEPV[dP]QAKPRKVAAQ [Compound 65]"
recorded_result = "* (* p < 0.05)"

[[record]]
substance = "KEPVPQAAPRKVAAQ [Compound 24]"
recorded_result = "+"

[[record]]
substance = "KEPVPQAKPRK[dV]AAQ [Compound 72]"
recorded_result = "** (** p < 0.01)"

[[record]]
substance = "D-Glu-Pro-Val-Pro-Gln-Ala-Lys ([dE]PVPQAK; also: acetate salt) [Compound 78]"
recorded_result = "+"

[[record]]
substance = "KEGVGQAKPRKVAAQ [Compound 37]"
recorded_result = "+"

[[record]]
substance = "Arg-Lys-Val-Ala (RKVA; printed: Arg-Lys-Val-Ala) [Compound 15]"
recorded_result = "* (* p < 0.05)"

[[record]]
substance = "Lys-Pro-Arg-Lys (KPRK; printed: Lys-Pro-Arg-Lys) [Compound 10]"
recorded_result = "** (** p < 0.01)"

[[record]]
substance = "KEPVGQAKPRKVAAQ [Compound 32]"
recorded_result = "+"

[[record]]
substance = "KEPVPQA[dK]PRKVAAQ [Compound 68]"
recorded_result = "** (** p < 0.01)"

[[record]]
substance = "EPVPAAK [Compound 47]"
recorded_result = "+"

[[record]]
substance = "KEPVPQAKPRKVAAA [Compound 30]"
recorded_result = "+"

[[record]]
substance = "Lys-Glu-Pro-Val (KEPV; printed: Lys-Glu-Pro-Val) [Compound 7]"
recorded_result = "+"

[[record]]
substance = "PVPQAKP [Compound 60]"
recorded_result = "−"

[[record]]
substance = "K[dE]PVPQAKPRKVAAQ [Compound 62]"
recorded_result = "* (* p < 0.05)"

[[record]]
substance = "KEPVPQAKPRKVAAN [Compound 104]"
recorded_result = "*** (*** p < 0.001)"

[[record]]
substance = "KQPVPQAKPRKVAAQ [Compound 105]"
recorded_result = "** (** p < 0.01)"

[[record]]
substance = "KEPVPQ [Compound 87]"
recorded_result = "+"

[[record]]
substance = "RKDVYPVPQ [Compound 94]"
recorded_result = "*** (*** p < 0.001)"

[[record]]
substance = "EPVPQA[dK] [Compound 84]"
recorded_result = "+"

[[record]]
substance = "EPAPQAK [Compound 52]"
recorded_result = "+"

[[record]]
substance = "AEPVPQAKPRKVAAQ [Compound 19]"
recorded_result = "+"

[[record]]
substance = "Pro-Val-Pro-Ile-Ala (PVPIA; printed: Pro-Val-Pro-Ile-Ala) [Compound 41]"
recorded_result = "+"

[[record]]
substance = "Pro-Gln-Ala-Lys (PQAK; printed: Pro-Gln-Ala-Lys) [Compound 14]"
recorded_result = "+"

[[record]]
substance = "Ala-Lys-Pro-Arg (AKPR; printed: Ala-Lys-Pro-Arg) [Compound 11]"
recorded_result = "+"

